Numbers sourced from PubChem BioAssay.

System: Sonic hedgehog protein (Shh)
assay_details: small-molecule binders of Shh protein, primary screen, biochemical, small-molecule microarray, 635/667 nm fluorescence (AID 1151);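 note: Shh protein binding to compounds spotted on small-molecule microarray slides; score combines spot fluorescence intensity with signal-to-noise across triplicate slides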
measurement_context: small-molecule microarray binding, 635 nm fluorescence; higher = more signal
Classification field: enter 1 for composite z-score values not below 0.7, 0 for values below it.

C/C=C\[C@@H](NCc1ccccc1Br)[C@@H](O)Cc1ccccc1; 0
CC(C)CON=C1[C@H]2CCn3c(=O)n(-c4ccccc4)c(=O)n3[C@H]2[C@H](O)[C@@H]2O[C@H]12; 0
CCOC(=O)[C@H](Cc1ccccc1)NC(=O)CCC1CC(OC(=O)NCc2ccc3c(c2)OCO3)CC2(CCCC(COC(=O)NCC3CCCCC3)O2)O1 (stereo not given in full); 1
CO[C@H]([C@@H](C)[C@H](OC)c1ccccc1)[C@H](C)[C@@H](OC)[C@H](C)C(C)=O; 0
CCOC(=O)CCN1C(=O)[C@H]2[C@H]3[C@H](O)[C@H](O)CC(=NOCc4ccccc4)[C@@H]3CC[C@H]2C1=O; 0
Cc1cc(C)c(-c2cc([C@H](C)ON=C3[C@H]4CCn5c(=O)n(-c6ccccc6)c(=O)n5[C@H]4[C@H](O)[C@@H]4O[C@H]34)on2)c(C)c1; 1
[N-]=[N+]=NCc1ccccc1C[C@]1(C(=O)NCc2ccccc2)N=C(c2ccc(OCCCO)cc2)O[C@H]1c1ccccc1N=[N+]=[N-]; 0
C=CC[C@]1(C(=O)NCc2ccccc2)N=C(c2ccc(OCCCO)cc2)O[C@H]1c1ccccc1; 0
COC(=O)[C@H](C)NC(=O)CCC1CC(OC(=O)NCCc2ccc(F)cc2)CC2(CCCC(COC(=O)NCCc3ccc(Cl)cc3)O2)O1 (stereo not given in full); 1
CCN1C(=O)[C@H]2[C@H]3[C@H](O)[C@H](O)CC(=NOCc4ccccc4)[C@H]3CC[C@H]2C1=O; 0
CCOc1ccc(N2C(=O)/C(=C/C=C/c3ccccc3OC)S(=O)(=O)C2c2cccc([N+](=O)[O-])c2)cc1 (stereo not given); 0
CC(C)CON=C1C[C@@H](O)[C@@H](O)[C@@H]2[C@@H]3C(=O)N(Cc4ccccc4)C(=O)[C@@H]3CC[C@@H]12; 0
CCOC(=O)CCN1C(=O)[C@H]2[C@H]3[C@H](O)[C@H](O)CC(=NNC(=O)OCc4ccc(OC)cc4)[C@@H]3CC[C@H]2C1=O; 1
C=C(CCCC)C(=O)CC[C@@H](OC(C)=O)c1cccc(OCCO)c1; 1

---

Parameter composite z-score: see the listing below.
assay_details: small-molecule microarray binders of probe aLefty2, primary screen, biochemical, biotinylated probe, 635/667 nm fluorescence (AID 1094);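 note: score merges spot fluorescence near 667 nm with spot signal-to-noise ratio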
measurement_context: higher = more signal
experimental_readout: composite z-score

CCOC(=O)CCN1C(=O)[C@H]2[C@H]3[C@H](O)[C@H](O)CC(=NOC[C@@H](O)COCc4ccco4)[C@H]3CC[C@H]2C1=O; -0.188
O=C(NN=C1C[C@@H](O)[C@@H](O)[C@@H]2[C@@H]3C(=O)N(c4cccc(Oc5ccccc5)c4)C(=O)[C@@H]3CC[C@@H]12)OCc1ccccc1; -0.0345
CO[C@H]1COC(=O)[C@@H]2CCCN2C(=O)[C@@H](C)COC(=O)CC=C[C@@H]1C; -0.238
CO[C@H]1COC(=O)CC=C[C@H](C)[C@@H](NS(=O)(=O)c2ccc(C)cc2)COC(=O)CC=C[C@@H]1C; -0.118
CC(CCN1CCc2nc(-c3ccccc3)c(-c3ccccc3)cc2C1)=NO[C@H](C)c1cn([C@@H]2COC[C@H]2O)nn1; 0.0218
CN(C)CCCNC(=O)[C@@H]1c2ccccc2C(=O)N(Cc2ccccc2)[C@H]1c1ccc(CO)cc1; 0.555
CC(CCC(=O)OC[C@H]1O[C@H](C#Cc2ccccc2)C=C[C@@H]1Oc1ccc(C)cc1)=NOC[C@@H](O)COCc1ccco1; -0.356

---

Parameter z-score: see the listing below.
assay_details: modulators of HCV replicon luciferase signal, primary screen, HCV replication inhibitor project, Huh7 cells, luciferase reporter (AID 1109);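 note: huh7 hepatoma cells harbouring a luciferase neomycin HCV replicon reporter; luciferase luminescence as measure of HCV replicon replication; test concentration not given here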
measurement_context: 48 h, higher = more signal
experimental_readout: z-score

CCN1C(=O)[C@H]2[C@H]3[C@H](O)[C@H](O)CC(=NOC(C)CN4CCCCc5nc(C)c(C)cc54)[C@@H]3CC[C@H]2C1=O (stereo not given in full); -1.17
C/C=C\[C@@H](NCc1ccccc1Br)[C@@H](O)Cc1ccccc1; -3.08
COc1ccc(CCNC(=O)[C@@H]2c3ccccc3C(=O)N(c3ccc(C)cn3)[C@H]2c2ccc(CO)cc2)cc1; 0.267
CCCCC(=C=CC[C@H](O)c1ccccc1OCCO)C[C@H](O)COCc1ccccc1; -1.92
CCOC(=O)C1=CCC(c2cc3ccccc3[nH]2)NC1 (stereo not given); -0.312
CO[C@@H]1COC(=O)CC=C[C@@H](C)COC(=O)[C@H](COCc2ccccc2)NC(=O)CC=C[C@H]1C; -0.151
CC(CCN1CCc2nc(-c3ccccc3)c(-c3ccccc3)cc2C1)=NO[C@H](C)c1cn([C@@H]2COC[C@H]2O)nn1; -0.883
CC(=O)OC[C@H]1O[C@H](CCON=C(C)CCN2CCc3nc(-c4ccccc4)c(-c4ccccc4)cc3C2)C=C[C@@H]1OC(C)=O; -1.58
CN1C(=O)C2C=CC(C(O)c3ccc(Br)cc3)N(N(c3ccccc3)c3ccccc3)C2C1=O (stereo not given); -1.01
COC(=O)[C@@]1(Cc2ccccc2)[C@H]2c3cc(C(=O)N4CCCC4)n(Cc4ccccn4)c3C[C@H]2CN1C(=O)c1ccccc1; -1.24
CN(C)CCCNC(=O)[C@@H]1c2ccccc2C(=O)N(Cc2ccccc2)[C@H]1c1ccc(CO)cc1; -1.24
C=C(COC)/C(=C/C[C@H](OC(=O)c1ccncc1)c1ccc(CO)o1)c1cc(C(=O)OC)ccc1OC; -0.718
COCC1=C2[C@@H](CCc3ccccc3)OB(O)C[C@@H]2n2c(=O)n(-c3ccccc3)c(=O)n2C1; 0.332
COc1ccc(O[C@H]2C=C[C@@H](c3ccccc3)O[C@@H]2COC(=O)CCC(C)=NO[C@H](C)c2cn([C@@H]3COC[C@H]3O)nn2)cc1; -2.82
CC1(C)OCC(C(O)C2=CCCCC2=O)CO1 (stereo not given); -0.751
CC(C)C[C@@H]1NC(=O)[C@H]2C[C@@H](C(=O)NCCCCCCN(C)C)[C@@H](c3cccc(OCCO)c3)N2C1=O; 0.35
COCCOC(=O)N1C(=O)[C@@]2(c3cc(C#CCNC(N)=O)ccc31)[C@H](c1ccc(O)cc1)N1[C@H](c3ccccc3)[C@H](c3ccccc3)OC(=O)[C@H]1[C@@H]2C(=O)N1CCCCCCC1; -0.768
O=C1[C@H]2[C@H]3[C@H](O)[C@H](O)CC(=NOC[C@@H](O)COCc4ccco4)[C@H]3CC[C@H]2C(=O)N1Cc1ccc2c(c1)OCO2; -0.385
CC(C)[Si]1(C(C)C)O[C@@H](c2ccccc2)c2cc(C3CC3)nc(-c3ccccc3)c21; -0.587
COC(=O)[C@H](C)NC(=O)CCC1CC(OC(=O)NCc2ccc3c(c2)OCO3)CC2(CCCC(COC(=O)NCCOc3ccccc3)O2)O1 (stereo not given in full); -0.424
O=C(NN=C1C[C@@H](O)[C@@H](O)[C@@H]2[C@@H]3C(=O)N(c4cccc(Oc5ccccc5)c4)C(=O)[C@@H]3CC[C@@H]12)OCc1ccccc1; -0.983
CCOC(=O)NN=C1C[C@@H](O)[C@@H](O)[C@@H]2[C@@H]3C(=O)N(CC)C(=O)[C@@H]3CC[C@@H]12; -0.161
Cn1cccc1C(O)C1C=CC2C(=O)NC(=O)C2N1Nc1ccccn1 (stereo not given); -0.803
COc1ccc(-c2nc3c(c4c2C[C@H](C)OC4)CN(CCC(C)C)CC3)cc1; -0.257
C=CCOC(=O)[C@H]1[C@@H]2C(=O)O[C@@H](c3ccccc3)[C@@H](c3ccccc3)N2[C@@H](c2ccc(OCCOC(=O)[C@H]3C[C@H]4C(=O)N5CCC[C@H]5C(=O)N4[C@H]3c3cccc(OCCO)c3)cc2)[C@]12C(=O)Nc1ccc(I)cc12; -0.38
CN(C)CCCNC(=O)[C@@H]1c2ccccc2C(=O)N(Cc2cc(F)cc(C(F)(F)F)c2)[C@H]1c1ccc(CO)cc1; -0.734
C#CCCCON=C1C[C@@H](O)[C@@H](O)[C@@H]2[C@@H]3C(=O)N(c4cccc(Oc5ccccc5)c4)C(=O)[C@@H]3CC[C@@H]12; -0.497
CCN1C(=O)[C@H]2[C@H]3[C@H](O)[C@H](O)CC(=NOC[C@@H](C)[C@H](OCc4ccccc4)C(C)C)[C@@H]3CC[C@H]2C1=O; -1.47
CC(=O)C[C@H](O)[C@@H](NC(=O)OC(C)(C)C)C(C)C; 0.479
O=C1C[C@@H](O)[C@@H](O)[C@@H]2[C@@H]3C(=O)N(C4CCCCC4)C(=O)[C@@H]3CC[C@H]12; -0.0951
